tested on: bermudagrass (Cynodon dactylon); assay: Test B pre-/postemergence plant response; format: in vivo; conditions: 62 g ai/ha, postemergence; 0 is no effect, 100 is complete control; 13 to 15 days
Hi there, I'd appreciate the recorded Bermudagrass plant response rating (0 to 100 scale) for every entry that follows.
Please give only the number in your answer, with no unit.

Per the records, this compound ( "COCCn1c(-c2cccc(Cl)c2)ncc(C(=O)C2=C(O)CCCC2=O)c1=O" ) has Bermudagrass plant response rating (0 to 100 scale) equal to 90

// field: Bermudagrass plant response rating (0 to 100 scale); key: "Cc1ccccc1-n1c(-c2cc(F)cc(F)c2)ncc(C(=O)C2=C(O)CCCC2=O)c1=O" ; value = 100

In plain terms, COCC(C)n1c(-c2ccccc2)ncc(C(=O)C2=C(O)CCCC2=O)c1=O (stereo not drawn) has a documented Bermudagrass plant response rating (0 to 100 scale) of 80
